Target: ACAT enzyme from the blood vessel wall (Oryctolagus cuniculus, UniProt G1SUQ0)
Sequence (G1SUQ0 entry or part of it): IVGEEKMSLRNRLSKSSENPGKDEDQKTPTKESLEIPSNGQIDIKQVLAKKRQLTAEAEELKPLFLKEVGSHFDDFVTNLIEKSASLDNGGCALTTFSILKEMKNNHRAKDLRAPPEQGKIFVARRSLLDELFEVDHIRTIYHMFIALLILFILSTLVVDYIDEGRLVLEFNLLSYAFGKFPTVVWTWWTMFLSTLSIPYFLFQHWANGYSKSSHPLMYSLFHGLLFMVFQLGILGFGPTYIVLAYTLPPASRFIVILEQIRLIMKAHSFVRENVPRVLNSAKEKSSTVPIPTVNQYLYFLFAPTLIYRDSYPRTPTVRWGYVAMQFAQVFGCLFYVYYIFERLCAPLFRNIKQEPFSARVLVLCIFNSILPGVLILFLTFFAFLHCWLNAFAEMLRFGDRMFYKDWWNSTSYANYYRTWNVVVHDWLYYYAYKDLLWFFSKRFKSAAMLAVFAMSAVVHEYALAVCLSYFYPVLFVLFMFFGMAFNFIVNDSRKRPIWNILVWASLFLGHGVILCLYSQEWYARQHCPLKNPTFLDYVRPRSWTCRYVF
Assay: ACAT inhibitory activity, microsomal enzyme from the blood vessel wall (breast aorta)
Type: biochemical, rabbit
Details: A‡: the blood vessel wall; microsome from breast aorta of rabbit fed 1% cholesterol food for 8 weeks; 14C-Oleoyl-CoA 40 µM, 37°C, 5 minutes
OBSERVATION_TYPE: IC50 (nM)

{"columns": ["MOLECULE", "TARGET_SYSTEM", "UNITS_OF_MEASURE", "RESULT_VALUE"],
 "data": [
  ["CC(C)c1cccc(C(C)C)c1NC(=O)C(C)(C)CCCOc1ccc2c(c1)C=C(c1nccn1C)C(CCc1ccc(F)cc1)O2 (stereo not shown) [Control 1, reference compound]", "ACAT enzyme from the blood vessel wall (Oryctolagus cuniculus, UniProt G1SUQ0)", "nM", 450]
]}
